- tested system: T1, human LTBR on cells (human, UniProt P36941 31-435)
- T1 construct: also called recombinant human LTBR CHO cells; CHO-K1 cells overexpressing human LTBR
- test description: FACS CHO-huLTBR, 20 µg/ml
readout: MFI (MFI)
Give just the numeric value; MFI need not be written.

Query: For P1AE1873 (CBE11) (antibody, human IgG1, kappa, L234A L235A, V domains shown) VH: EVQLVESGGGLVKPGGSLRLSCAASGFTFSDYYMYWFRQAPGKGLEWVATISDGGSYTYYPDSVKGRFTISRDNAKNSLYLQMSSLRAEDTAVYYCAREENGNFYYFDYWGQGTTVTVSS VL: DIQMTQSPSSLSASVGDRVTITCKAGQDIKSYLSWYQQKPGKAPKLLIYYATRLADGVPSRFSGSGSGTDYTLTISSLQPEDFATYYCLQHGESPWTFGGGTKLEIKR , what is its reported MFI?
Response: 49900
